# testTarget: human nSMase2 (Homo sapiens)
# Sequence (Q9NY59 1-655): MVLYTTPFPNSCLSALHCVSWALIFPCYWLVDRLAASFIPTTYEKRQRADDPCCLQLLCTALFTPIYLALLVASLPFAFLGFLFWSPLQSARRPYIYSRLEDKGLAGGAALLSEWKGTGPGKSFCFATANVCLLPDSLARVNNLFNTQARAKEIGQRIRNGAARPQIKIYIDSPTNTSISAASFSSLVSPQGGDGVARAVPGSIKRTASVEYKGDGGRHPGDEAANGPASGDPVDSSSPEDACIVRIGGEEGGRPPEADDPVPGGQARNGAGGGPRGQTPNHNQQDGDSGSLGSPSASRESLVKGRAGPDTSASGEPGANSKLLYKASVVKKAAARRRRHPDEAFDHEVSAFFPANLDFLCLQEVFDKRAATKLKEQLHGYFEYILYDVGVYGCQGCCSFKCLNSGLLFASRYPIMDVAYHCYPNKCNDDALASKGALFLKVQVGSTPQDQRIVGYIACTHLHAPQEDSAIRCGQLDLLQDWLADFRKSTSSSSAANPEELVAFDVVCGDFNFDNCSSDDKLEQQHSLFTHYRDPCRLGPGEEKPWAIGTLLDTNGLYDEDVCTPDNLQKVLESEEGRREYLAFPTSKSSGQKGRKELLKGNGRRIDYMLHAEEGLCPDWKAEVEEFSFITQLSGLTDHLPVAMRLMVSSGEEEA
# experimentSummary: fluorescence-based coupled nSMase2 assay
# Format: biochemical
# experimentalSetup: compared with DPTIP or parent analog
measurementType: nSMase2 inhibitory activity (in words)

COc1cc(C2=NCCN2)cc(OC)c1O; complete loss of potency
Oc1cccc(-c2nc(-c3ccccc3)c(-c3cccs3)[nH]2)c1; complete loss of potency

###

# experimentSummary: glucuronidation stability in mouse liver microsomes in the presence of UDPGA
# Type: in vitro ADME
# experimentalSetup: mouse, liver microsomes, pH 7.5
measurementType: remaining at 1 h

Task: What value of measured remaining at 1 h is listed for COc1cc(-c2nc(C(C)C)c(C(C)C)[nH]2)cc(OC)c1O [Compound 25b] ?
Output: < 20%
